Listing of recorded IC50 by entry.
- Test Target: recombinant human His6-USP1/His6-UAF1 composite protein (Homo sapiens (Human), UniProt O94782)
- Sequence (O94782 whole entry): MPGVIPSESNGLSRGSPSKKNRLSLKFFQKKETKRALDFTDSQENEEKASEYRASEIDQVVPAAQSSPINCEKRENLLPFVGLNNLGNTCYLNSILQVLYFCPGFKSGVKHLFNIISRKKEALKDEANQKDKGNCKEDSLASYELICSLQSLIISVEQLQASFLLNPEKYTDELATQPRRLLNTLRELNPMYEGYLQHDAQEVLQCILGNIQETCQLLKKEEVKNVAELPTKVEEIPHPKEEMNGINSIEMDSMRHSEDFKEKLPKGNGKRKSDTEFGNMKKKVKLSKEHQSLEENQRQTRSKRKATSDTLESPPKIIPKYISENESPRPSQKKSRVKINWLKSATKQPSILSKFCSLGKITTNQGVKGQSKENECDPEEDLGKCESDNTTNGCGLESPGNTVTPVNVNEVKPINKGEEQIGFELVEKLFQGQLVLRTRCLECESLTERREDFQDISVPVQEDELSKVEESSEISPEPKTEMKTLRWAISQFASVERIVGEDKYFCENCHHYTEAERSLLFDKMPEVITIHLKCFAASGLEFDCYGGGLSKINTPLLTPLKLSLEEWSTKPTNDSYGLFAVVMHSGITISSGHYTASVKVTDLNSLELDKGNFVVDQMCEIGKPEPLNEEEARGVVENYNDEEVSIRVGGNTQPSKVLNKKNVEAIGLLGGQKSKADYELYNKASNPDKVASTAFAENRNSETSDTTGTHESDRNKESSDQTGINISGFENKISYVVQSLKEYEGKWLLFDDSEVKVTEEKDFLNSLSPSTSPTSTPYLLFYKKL
- Sequence (Q8TAF3 whole entry partner): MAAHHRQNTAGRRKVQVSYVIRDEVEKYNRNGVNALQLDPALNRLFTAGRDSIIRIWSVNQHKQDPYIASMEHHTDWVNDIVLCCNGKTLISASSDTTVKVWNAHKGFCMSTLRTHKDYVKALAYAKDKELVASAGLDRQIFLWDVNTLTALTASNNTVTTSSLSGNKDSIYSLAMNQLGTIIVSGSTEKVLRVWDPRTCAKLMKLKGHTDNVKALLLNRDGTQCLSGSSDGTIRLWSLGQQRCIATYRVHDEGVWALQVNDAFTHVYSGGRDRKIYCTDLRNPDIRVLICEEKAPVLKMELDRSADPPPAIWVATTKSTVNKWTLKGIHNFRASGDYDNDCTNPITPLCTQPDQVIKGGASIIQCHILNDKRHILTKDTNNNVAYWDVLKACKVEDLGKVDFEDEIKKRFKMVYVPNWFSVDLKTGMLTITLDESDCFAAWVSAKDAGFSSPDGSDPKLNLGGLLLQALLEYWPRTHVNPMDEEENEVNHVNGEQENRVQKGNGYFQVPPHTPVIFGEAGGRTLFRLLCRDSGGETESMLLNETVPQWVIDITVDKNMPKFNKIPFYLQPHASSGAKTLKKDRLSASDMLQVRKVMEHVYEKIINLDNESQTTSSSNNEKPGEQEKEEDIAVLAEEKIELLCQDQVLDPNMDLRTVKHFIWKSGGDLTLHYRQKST
- Experiment Summary: USP1 enzyme activity detection (Ub-Rho fluorescence)
- Conditions: USP1/UAF1, Ub-Rho substrate 300 nM, 1 hour pre-incubation; read-out: IC50 (enzymatic inhibition of USP1)

Molecule: COc1ncnc(C2CC2)c1-c1ncc2c3ccccc3n(Cc3ccc(-n4nc(C)cc4C(F)(F)F)cc3)c2n1 [Compound 24]
IC50 (nM): 35.5
//
Molecule: CNc1ccc2c3cnc(-c4c(OC)ncnc4C4CC4)nc3n(Cc3ccc(-c4nc(C(F)(F)F)cn4C)cc3)c2n1 [Compound 74]
IC50 (nM): 4.13
//
Molecule: COc1ncnc(C2CC2)c1-c1ncc2c3ccncc3n(Cc3ccc4c(c3)CCCCn3cc(C(F)(F)F)nc3-4)c2n1 [Compound 90]
IC50 (nM): 3.65
//
Molecule: COc1ncnc(C2CC2)c1-c1ncc2c3ccncc3n(Cc3ccc(-c4nc(C(F)(F)F)cn4C)cc3)c2n1 [Compound 78]
IC50 (nM): 4.39
//
Molecule: COc1ncnc(C2CC2)c1-c1ncc2c3ccc(S(C)(=O)=O)cc3n(Cc3ccc(-c4nc(C(F)(F)F)cn4C(C)C)cc3)c2n1 [Compound 14]
IC50 (nM): 4.32
//
Molecule: COc1ncnc(C2CC2)c1-c1ncc2c3ccncc3n(Cc3ccc(-c4nc(C(F)(F)F)c(F)n4C)cc3)c2n1 [Compound 155]
IC50 (nM): 26
//
Molecule: COc1ncnc(C2CC2)c1-c1ncc2c3ccc(C#N)cc3n(Cc3ccc(-c4nc(C(F)(F)F)c5cnccn45)cc3)c2n1 [Compound 129]
IC50 (nM): 36
//
Molecule: COc1ncnc(C2CC2)c1-c1ncc2c3ccc(CS(C)(=O)=O)cc3n(Cc3ccc4c(c3)CCCn3cc(C(F)(F)F)nc3-4)c2n1 [Compound 83]
IC50 (nM): 4.62
//
Molecule: COc1ncnc(C2CC2)c1-c1ncc2c3ccncc3n(Cc3ccc4c(c3)Cn3cc(C(F)(F)F)nc3-4)c2n1 [Compound 71]
IC50 (nM): 108
//
Molecule: COc1ncnc(C2CC2)c1-c1ncc2c3ccc(NCCO)nc3n(Cc3ccc4c(c3)CCCn3cc(C(F)(F)F)nc3-4)c2n1 [Compound 97]
IC50 (nM): 2.1
//
Molecule: COc1ncnc(C2CC2)c1-c1ncc2c3cn(C)nc3n(Cc3cc(F)c(-c4nc(C(F)(F)F)cn4C)c(F)c3)c2n1 [Compound 115]
IC50 (nM): 3.03
//
Molecule: COc1ncnc(C2CC2)c1-c1ncc2c3ccc(N(C)S(C)(=O)=O)cc3n(Cc3ccc(-c4nc(C(F)(F)F)cn4C)cc3)c2n1 [Compound 82]
IC50 (nM): 4.45
//
Molecule: COc1ncnc(C2CC2)c1-c1ncc2c3ccc(C(F)(F)F)cc3n(Cc3ccc(-c4nc(C(F)(F)F)cn4C)cc3)c2n1 [Compound 41]
IC50 (nM): 35.2
